tested on: Hela cell line; test: Cytotoxicity MTS assay, Hela cell line; format: cell-based; conditions: Hela cell line, MTS, 50μM, first assay;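 also: blank control wells received 0.025% DMSO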

# Molecule, Tested target, OD490 value, Well 2
rows = [
    ("CCOc1ccccc1C1NC(=S)NC(C)=C1C(=O)Nc1ccc(Cl)cc1 (centres unmarked)", "Hela cell line", 1.8006),
    ("CCOC(=O)c1c(C2NC(=O)NC(C)=C2C(=O)Nc2ccccc2C)[nH]c(C(=O)OC)c1C (centres unmarked) [D2]", "Hela cell line", 2.5642),
    ("CCOC(=O)c1[nH]c(C2NC(=S)NC(C)=C2C(=O)OC)c(C(=O)OCC)c1C (centres unmarked)", "Hela cell line", 2.6584),
    ("CCOC(=O)c1[nH]c(C2NC(=O)NC(C)=C2C(=O)Nc2ccccc2C)c(C(=O)OC)c1C (centres unmarked)", "Hela cell line", 2.5633),
    ("CCOC(=O)c1[nH]c(C2NC(=O)NC(C)=C2C(=O)Nc2ccccc2OC)c(C(=O)OC)c1C (centres unmarked)", "Hela cell line", 2.2920),
    ("CCOC(=O)c1c(C2NC(=O)NC(C)=C2C(=O)Nc2ccccc2)[nH]c(C(=O)OC)c1C (centres unmarked)", "Hela cell line", 1.7737),
    ("CCOC(=O)c1c(C2NC(=O)NC(C)=C2C(=O)Nc2ccccc2OC)[nH]c(C(=O)OC)c1C (centres unmarked) [D1]", "Hela cell line", 2.1034),
    ("CCOC(=O)c1[nH]c(C2NC(=O)NC(C)=C2C(=O)Nc2ccc(Cl)cc2)c(C(=O)OCC)c1C (centres unmarked)", "Hela cell line", 2.4847),
]
